Each record here notes measured activity, negative = inhibition.
- assayedSystem: Cytochrome P450 3A4 (Homo sapiens)
- testMethodNotes: Cytochrome panel assay with activity outcomes; for activity, negative = inhibition: % is set by controls: 0 for no effect and ±100 for the full control effect
- cond: recombinant CYP, pro-luciferin dealkylation, luminescence, p450-cyp3a4; series mostly up to 57.1 µM
About 5,100 (32%) of roughly 16,000 compounds were called active. Inconclusive results (about 25%) are left out. Some of the results follow.

Q: Supply measured activity, negative = inhibition of CCOC(=O)N/N=C1/C[C@@H](O)[C@@H](O)[C@@H]2[C@@H]3C(=O)N(Cc4ccccc4)C(=O)[C@H]3CC[C@@H]12 in your reply.
Result: -18.3% [at 11.4 µM] (inactive)

Q: Supply measured activity, negative = inhibition of CC(C)N(CC(=O)O)CC(=O)O in your reply.
Result: -7.3% [at 11.4 µM] (inactive)

Q: Supply measured activity, negative = inhibition of COCCCNC(=O)C1CCC(=O)N1Cc1ccccc1Cl (centres undefined) in your reply.
Result: -20.1% [at 11.4 µM] (inactive)

Q: Supply measured activity, negative = inhibition of N[C@@H](CSCc1ccccc1)C(=O)O in your reply.
Result: -6.14% [at 11.4 µM] (inactive)

---

- assayedSystem: Cytochrome P450 3A4 (Homo sapiens)
- testMethodNotes: Cytochrome panel assay with activity outcomes
- cond: recombinant CYP, pro-luciferin dealkylation, luminescence, p450-cyp3a4; series mostly up to 57.1 µM
Out of some 16,000 compounds screened, about 5,100 (32%) were called active. Roughly 25% stayed inconclusive and do not appear here. The call rests on the fitted dose curve; in most records, active means well fitted curve in the direction sought with a large enough effect; inconclusive means small, poorly fitted or top-dose-only effect, or effect the other way; inactive means no such curve, though single readings can be large or run the other way. This is one part of the list.
Response enum: active, inactive

The examples below pair each entry with its known result.
COc1ccc(N2CCN(Cc3nc4c(c(=O)n(C)c(=O)n4C)n3CC(C)=O)CC2)cc1	inactive
CC1(C)CCC=[N+]1[O-]	inactive
O=P(O)(O)CCP(=O)(c1ccccc1)c1ccccc1	inactive

Q: Please let me know the test result on file for CCNc1nc(NCC)nc(N(C)N)n1 .
Result: inactive

Q: Please let me know the test result on file for COc1ccc(OC)c2[nH]c(=O)c(CCNC(=O)c3ccc(S(=O)(=O)N(C)C)cc3)cc12 .
Result: inactive

Q: Please let me know the test result on file for COc1cc2nc(SCc3ccc(Cl)cc3Cl)n(Cc3cccs3)c(=N)c2cc1OC .
Result: active

Q: Please let me know the test result on file for O=P(Cc1cc[n+]([O-])cc1)(c1ccccc1)c1ccccc1 .
Result: active

Q: Please let me know the test result on file for CCOC(=O)Cc1csc(NC(=O)c2ccc(Cl)nc2)n1 .
Result: active

Q: Please let me know the test result on file for Cn1c(=O)[nH]c(=O)c2c1nc(CN(Cc1ccccc1)Cc1ccccc1)n2CCN1CCOCC1 .
Result: active

Q: Please let me know the test result on file for Cn1c(=O)[nH]c(=O)c2c1nc(CN1CCOCC1)n2CCCO .
Result: inactive

Q: Please let me know the test result on file for COc1ccc(Cn2c(SCc3ccccc3C)nc3cc(OC)c(OC)cc3c2=N)cc1 .
Result: active

---

- assayedSystem: Cytochrome P450 3A4 (Homo sapiens)
- testMethodNotes: Cytochrome panel assay with activity outcomes
- cond: recombinant CYP, pro-luciferin dealkylation, luminescence, p450-cyp3a4; series mostly up to 57.1 µM
About 5,100 (32%) of roughly 16,000 compounds were called active. About 25% were inconclusive and are not listed. Calls come from the whole dose curve; as a rule, active = well fitted curve in the direction sought with a large enough effect; inconclusive = small, poorly fitted or top-dose-only effect, or effect the other way; inactive = no such curve, though single readings can be large or run the other way. The list shows a part of the results.
Response enum: active, inactive

The examples below pair each entry with its known result.
CCCCCC(=O)Nc1cccc(-c2nc3ncccc3o2)c1	active
CC(C)CC1CC(=O)OC1(C)C(=O)CSc1nc2ccccc2s1 (stereo not given)	active
COCCCN1C(=O)C(=O)/C(=C(/O)c2ccc(OC(C)C)c(C)c2)C1c1ccncc1 (stereo not given)	inactive
O=C(O)[C@@H](O)[C@@H](O)[C@@H](O)[C@@H](O)C(=O)O (tested in a mixture with another compound)	inactive
CCc1ccc(OCC(=O)Nc2ccc(-c3nc4ccccc4o3)c(O)c2)cc1	inactive

Q: Please let me know the test result on file for O=C1CCCN1CC(O)CS(=O)(=O)c1ccccc1 (stereo not given) .
Result: inactive

Q: Please let me know the test result on file for CC1(C)CC2(CC(C)(C(=O)CSc3nc4ccccc4s3)OC2=O)C(=O)O1 (stereo not given) .
Result: active

Q: Please let me know the test result on file for CCOc1ccc(/C(O)=C2/C(=O)C(=O)N(CCCn3ccnc3)C2c2cccs2)cc1Cl (stereo not given) .
Result: active

Q: Please let me know the test result on file for CCCNC(=O)c1c(C)cc(=O)oc1C .
Result: inactive

Q: Please let me know the test result on file for CC1(C)CO[C@H](CC(=O)O)CN1 .
Result: inactive
